Every entry's value here was drawn from the supplement of paper PMC10567573.

B1: CSTF3 (parent)
chain: YVPEKVKKAEKKLEENPYDLDAWS

Variants of: B1
Protocol description: protein stability index of a GFP-peptide fusion (GPS, HEK-293T) (PSI 1-6); higher = more stable;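 note: lentivirally expressed fusions sorted by FACS into six bins by GFP to DsRed ratio, PSI derived from sequencing read proportions per bin multiplied by bin number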
Experimental context: c terminus: a fixed tail appended
Field: class. Source value: protein stability index. Ranges: low = under 2, medium = from 2 up to 3, high = 3 and over

input: Assign a category based on measured protein stability index for E4G and give only the class name.
output: medium

input: Do the same for P3E please
output: medium

input: // query: K11I
output: high

input: Please answer likewise for S24L
output: high

input: Please answer likewise for P3A
output: medium

input: Try E10R next.
output: medium

input: Can you handle V6P next?
output: low

input: Similarly, S24Q ?
output: medium

input: Follow-up entry: E4R
output: medium

input: Same for V6Y
output: medium

input: Y18H ?
output: medium

input: Quick one: E14L
output: medium

input: Also check E10D
output: low

input: Query K8A next
output: high

input: Moving on to the next variant: K12H
output: high

input: Now consider K5R .
output: medium

input: Also need V2Y , thanks.
output: high

input: // next record K5H
output: medium

input: Try the variant Y1Q
output: high

input: # iterate: V6T
output: low
